# tested target: inactivated state of Bruton's Tyrosine Kinase (Homo sapiens (Human))
# Sequence (Q06187 whole entry): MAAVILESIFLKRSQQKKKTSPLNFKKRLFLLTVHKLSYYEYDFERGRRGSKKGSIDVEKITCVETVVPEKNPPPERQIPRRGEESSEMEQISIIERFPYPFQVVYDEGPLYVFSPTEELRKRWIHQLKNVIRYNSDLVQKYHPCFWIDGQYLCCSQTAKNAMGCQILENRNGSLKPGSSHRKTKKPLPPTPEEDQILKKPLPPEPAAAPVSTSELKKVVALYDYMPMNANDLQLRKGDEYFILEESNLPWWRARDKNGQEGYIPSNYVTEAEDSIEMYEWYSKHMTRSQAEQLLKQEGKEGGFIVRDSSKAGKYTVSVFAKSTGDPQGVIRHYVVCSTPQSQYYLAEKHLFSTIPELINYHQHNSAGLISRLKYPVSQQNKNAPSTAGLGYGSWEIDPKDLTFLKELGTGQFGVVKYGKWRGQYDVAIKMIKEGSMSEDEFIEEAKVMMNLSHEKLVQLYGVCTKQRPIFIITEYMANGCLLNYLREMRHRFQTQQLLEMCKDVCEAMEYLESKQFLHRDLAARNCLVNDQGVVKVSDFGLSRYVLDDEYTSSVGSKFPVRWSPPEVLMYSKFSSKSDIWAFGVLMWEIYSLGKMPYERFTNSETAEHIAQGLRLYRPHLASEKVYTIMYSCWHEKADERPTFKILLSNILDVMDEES
# assay method text: Bruton's Tyrosine Kinase (BTK) Inhibition TR-FRET competition assay
# details: Kinase Tracer 178, incubated 18-24 h at 14° C.
pIC50: −log10 of the molar value.
readout label: pIC50

[
  {
    "test smiles": "Nc1c(C(=O)c2cc3ccccc3[nH]2)cnn1-c1ccc(Oc2ccccc2)c(F)c1",
    "pIC50": 7.39
  },
  {
    "test smiles": "Nc1c(C(=O)c2cc3ccccc3[nH]2)cnn1-c1ccc(Oc2ccccc2)c(O)c1",
    "pIC50": 7.23
  },
  {
    "test smiles": "Cc1cc(Oc2cccc(C(N)=O)c2)ccc1-n1ncc(C(=O)c2nc3ccccc3[nH]2)c1N",
    "pIC50": 6.64
  }
]

[1] Nc1c(C(=O)c2cc3ccccc3[nH]2)cnn1-c1ccc(Oc2ccccc2)c(Cl)c1
[2] Cc1cc(Oc2ccccc2C#N)ccc1-n1ncc(C(=O)c2cc3ccccc3[nH]2)c1N
Would you mind telling me which has the lower recorded pIC50 between 1 and 2 ? Write down the label attached to your selection.
1
